Molecular target: human Nav1.1 (Homo sapiens)
Construct: host or cells: HEK293
Assay: Amplification of Nav1.1-derived voltage-gated sodium current (Nav1.1 current), automated patch clamp (Test 1)
Type: cell-based
Settings: Concentration for evaluation 10 μM; HEK293 cell line stably expressing human Nav1.1
Procedure: Test 1: Evaluation of the Amplification of Nav1.1-Derived Voltage-Gated Sodium Current (Nav1.1 Current) by Using a Cell Line Stably Expressing Human Nav1.1 (1) Preparation of Test Compound Solution […] The effect of test compounds on the amplification of Nav1.1-derived voltage-gated sodium current was evaluated by using a cell line stably expressing human Nav1.1 and HTS automated patch clamp system. […] The Nav1.1 current amplification rates of test compounds were calculated by the following formula: […]
Respond with Y for Nav1.1 current amplification rate (%) values of 90% and above, N for values below.

Please check the record Cc1noc2cc(NC(=O)Cn3nc(N4CCC(C)CC4)ccc3=O)ccc12 and state if its Nav1.1 current amplification rate (%) is at or above 90%.
Y

Is the recorded value of Nav1.1 current amplification rate (%) equal to or greater than 90% for this compound? CC1(C)CC=C(c2ccc(=O)n(CC(=O)Nc3ccc4c(c3)OCC4)n2)CC1
Y

Hi, just wondering whether CC1CC=C(c2ccc(=O)n(CC(=O)Nc3ccc4oc(C(F)F)nc4c3)n2)CC1 (stereo not drawn) shows Nav1.1 current amplification rate (%) of 90% or higher.
Y

Test whether the compound COc1cc(=O)n(CC(=O)Nc2ccc3ocnc3c2)nc1C1=CCC(C)(C)CC1 records Nav1.1 current amplification rate (%) of 90% or higher.
Y

Check this compound for Nav1.1 current amplification rate (%) at or above 90%: N#Cc1ccc(NC(=O)Cn2nc(N3CCCCC3)ccc2=O)cc1
N

# check: Nav1.1 current amplification rate (%) of CC1CC=C(c2ccc(=O)n(CC(=O)Nc3ccc(CO)nc3)n2)CC1 (stereo not drawn) is greater than or equal to 90%
N

Test whether the compound CC1CC=C(c2ccc(=O)n(CC(=O)N3CCN(c4cncc(F)c4)CC3)n2)C1 (stereo not drawn) records Nav1.1 current amplification rate (%) of 90% or higher.
Y

// inclusive: Nav1.1 current amplification rate (%) at least 90%? input: CC1CCN(c2ccc(=O)n(CC(=O)Nc3ccn4nccc4c3)n2)CC1
Y

Entry CC1CCN(c2ccc(=O)n(CC(=O)Nc3cncc(F)c3)n2)CC1 : is its Nav1.1 current amplification rate (%) no less than 90%?
N

Does Nav1.1 current amplification rate (%) meet or surpass 90% for Cc1ccc(-c2ccc(=O)n(CC(=O)Nc3ccnnc3)n2)cc1 ?
N

Is the recorded value of Nav1.1 current amplification rate (%) equal to or greater than 90% for this compound? COc1cc(-c2cc(Cl)cs2)nn(CC(=O)N2CCc3c(N4CCOCC4)cccc32)c1=O
Y

Please check the record COc1cc(=O)n(CC(=O)Nc2ccn3ccnc3c2)nc1C1=CCC(C)(C)CC1 and state if its Nav1.1 current amplification rate (%) is at or above 90%.
Y

Check if Nav1.1 current amplification rate (%) >= 90% (inclusive). Item: COC1CCN(c2ccc(=O)n(CC(=O)Nc3ccc(C#N)cc3)n2)CC1
N

Record Cc1cc(NC(=O)Cn2nc(N3CCC(C)CC3)ccc2=O)cc(C)n1 ; criterion: Nav1.1 current amplification rate (%) no lower than 90%. Met?
N

Record CC1(C)CC=C(c2ccc(=O)n(CC(=O)N3CCN(c4ccccn4)CC3)n2)CC1 ; criterion: Nav1.1 current amplification rate (%) no lower than 90%. Met?
N

Does the compound CC1(C)CC=C(c2ccc(=O)n(CC(=O)N3CCc4c(OC5COC5)cccc43)n2)CC1 have recorded Nav1.1 current amplification rate (%) that is 90% or more?
Y

Kindly determine if Nav1.1 current amplification rate (%) recorded for CN(c1cnc2cnn(CC(=O)N3CCc4c3cccc4C(F)(F)F)c2n1)C1CC1 is above or exactly 90%.
Y
